assay: Oral bioavailability in Sprague-Dawley rat at 10 mg/kg, po; type: ADME, organism-based; settings: in vivo
Label T when bioavailability >= 50%; otherwise F.

structure_string: COC(=O)c1ccc(C)cc1-c1ccc([C@@H](C)Nc2nccc(C)c2NC(=O)CC#N)cc1
label: F

structure_string: C[C@@H](Nc1nccc(Cl)c1NC(=O)CC#N)c1ccc(-c2cccc(F)c2-c2nnn(C)n2)cc1
label: T

structure_string: COC(=O)c1c(Cl)cccc1-c1ccc([C@@H](C)Nc2nccc(Cl)c2NC(=O)CC#N)cc1
label: F

structure_string: Cc1noc(-c2c(F)cccc2-c2ccc([C@@H](C)Nc3nccc(Cl)c3NC(=O)CC#N)cc2)n1
label: T

structure_string: C[C@@H](Nc1nccc(Cl)c1NC(=O)CC#N)c1ccc(-c2cccc(F)c2C(F)(F)F)cc1
label: T

structure_string: COC(=O)c1ccc(Cl)cc1-c1ccc([C@@H](C)Nc2nccc(Cl)c2NC(=O)CC#N)cc1
label: F

structure_string: C[C@@H](Nc1nccc(Cl)c1NC(=O)CC#N)c1ccc(-c2cccc(F)c2C#N)cc1
label: T
